The reported measurements were obtained from ChEMBL document CHEMBL1201862.

System: EKVX
Assay: NCI tumour cell line growth inhibition, 48 h
Active and inactive are the calls of the source. Rule as the data show it: active = GI50 up to about 1.1 µM and inactive = higher.
Collected GI50 values appear next to each entry.

CNC(=O)N(CCCCC(NC(C)=O)C(=O)NCc1ccccc1)Cc1ccccc1 (configuration not stated)
> 100 µM (inactive)

Task: // Input: CC1=CC(=O)c2cccc(O)c2C1=O . Output its GI50 only.
Result: 4.29 µM (inactive)

Task: For CC(C)=CCC/C(C)=C/CC/C(C)=C/C(O)c1ccccc1 (configuration not stated) , write its GI50.
Result: 20.1 µM (inactive)

Task: Supply GI50 value. Item: Oc1nc(S)nc2c1C(c1ccc(Cl)cc1)c1c(O)nc(S)nc1O2
Result: > 100 µM (inactive)

Task: Indicate its recorded GI50; the molecule in question is Oc1c(CN2CCN(c3ccccc3)CC2)cc(Br)c2cccnc12
Result: 2.62 µM (inactive)

###

GI50 values for the compounds below.
Test system: HCC 2998
Experiment: NCI tumour cell line growth inhibition, 48 h
The source made the active and inactive calls. No stated cut-off is given here; in the data, active = GI50 up to about 1.1 µM and inactive = higher.

Solved entries:
N#Cc1c(N2CCCC2)ncn(-c2ccccc2)c1=S
> 100 µM (inactive)
COc1cc(/C=C/C=C2\CCC/C(=C\C=C\c3ccc(O)c(OC)c3)C2=O)ccc1O
13.2 µM (inactive)
CC(C)(C)OC(=O)N1CCC2(C)CC(=O)CC=C12 (stereo unspecified)
> 100 µM (inactive)
COc1ccccc1CC1(O)OC(=O)c2ccccc21 (stereo unspecified)
> 100 µM (inactive)
CN(C)CCc1c2c(nc3ccccc13)C(=O)c1cccnc1C2=O
1.35 µM (inactive)

Task: Find GI50 for CCOc1cc2c(cnc3c4cc(OC)c(OC)cc4ccc23)cc1OC on HCC 2998 and write it down.
Result: > 100 µM (inactive)

Task: Please report the measured GI50 for CC(C)(Oc1ccc2c(=O)cc(-c3ccccc3)oc2c1)C(=O)N1CCN(c2ccccc2)CC1 tested on HCC 2998.
Result: 5.94 µM (inactive)

Task: Provide HCC 2998 GI50 reading for Cc1ccc(C(=O)/C=C/c2ccccc2Cl)cc1 .
Result: 18.5 µM (inactive)

Task: Report measured GI50 on HCC 2998; entry: COc1ccc(C(=O)C(CC2C(=O)CC(C)(C)C(C(=O)C(=O)Nc3c(C)cccc3C)C2=O)c2ccc(OC)cc2)cc1 (stereo unspecified)
Result: > 100 µM (inactive)

Task: Please report the measured GI50 for O=C1NC(N2CCOCC2)=N/C1=C\c1ccc(Cl)cc1 tested on HCC 2998.
Result: > 100 µM (inactive)

Task: Look up and report measured GI50 (HCC 2998) for the following compound: CSC1(CC(=O)N2CCCCC2)C(=O)Nc2ccccc21 (stereo unspecified)
Result: > 100 µM (inactive)

###

Tested on: K562
Assay: NCI tumour cell line growth inhibition, 48 h
Calls of active or inactive are those of the source. Cut-off read from the data, not from the text of the source: active = GI50 up to about 1.1 µM and inactive = higher.
Outcomes you can answer with include only these: active, inactive

CCOC(=O)N(NC(=O)NC(C)C)c1ccccc1
inactive
CN1C(=O)N(C)C2(CCN(CC(CC3OCCO3)c3ccc(F)cc3)CC2)C1=O (stereo not given)
inactive
CC1(C)CC23CC(C)(C)c4cccc(c42)OCc2ccc4ccc5ccc(nc5c4n2)COc2cccc1c23
inactive
Nc1c(-c2ccccc2-c2c(N)[n+]([O-])c3ccccc3[n+]2[O-])[n+]([O-])c2ccccc2[n+]1[O-]
inactive
CC1C(c2ccccc2O)c2cc3c(cc2OC1N1CCOCC1)OCO3 (stereo not given)
inactive
CCOP(=O)(OCC)C(C)(C)OC(=O)NC#N
inactive
COc1ccc(C[C@H]2COC(=O)[C@@H]2Cc2cccc(Br)c2)cc1OC
inactive
NC1=NC(c2ccc(Cl)cc2)N(c2ccc(S(=O)(=O)Nc3ncccn3)cc2)C(N)=N1 (stereo not given)
inactive

Task: What outcome does the record of this test show for O=C1CCCc2c(O)ccc(O)c21 ?
Result: inactive

Task: Could you kindly confirm the outcome this assay logged for Nc1nc(NCc2ccccc2)cc(NCc2ccccc2)n1 ?
Result: inactive

Task: Please state the recorded outcome for this molecule: CSC1(CC(=O)N2CCCCC2)C(=O)Nc2ccccc21 (stereo not given)
Result: inactive

Task: Field: outcome | Entry: CC(C)=CCC[C@@H](C)C1=C(O)C(=O)C(C)=C(Nc2ccccc2I)C1=O
Result: inactive

Task: // return assay outcome for O=[N+]([O-])CC(SCc1ccccc1)c1ccc2c(c1)OCO2 (stereo not given)
Result: inactive

Task: Dear all, I need the recorded test outcome for c1ccc2c(c1)nc1n2CCSC1 , thank you.
Result: inactive

Task: What outcome does the record of this test show for N/C(=N\c1ccc(Cl)cc1)NS(=O)(=O)c1cccc2nsnc12 ?
Result: inactive

Task: Each molecule tested received a call. Report the one for COc1ccc(CC2c3cc4c(cc3CCN2C)OCO4)c(C=O)c1OC (stereo not given) .
Result: inactive

###

Recorded GI50, one value per entry.
System: M14
Assay: NCI tumour cell line growth inhibition, 48 h
Active and inactive are the calls of the source. No stated cut-off is given here; in the data, active = GI50 up to about 1.1 µM and inactive = higher.

c1ccc(CN2CCC(=NN3CCCCC3)CC2)cc1
> 100 µM (inactive)
O=c1oc2c(O)c(O)c(O)c3c(=O)oc4c(O)c(O)cc1c4c23
> 100 µM (inactive)
CCOc1cc2c(cnc3c4cc(OC)c(OC)cc4ccc23)cc1OC
> 100 µM (inactive)
Nc1nc(NCc2ccccc2)cc(NCc2ccccc2)n1
10.5 µM (inactive)

Now consider a different compound.
Task: Item C=C(C)[C@H]1C2=CC(C(=O)OC)=C(C[C@H](C(=C)C)[C@@H](O)[C@@H](O)C3=C[C@H]1OC3=O)O2 : provide GI50
Result: > 100 µM (inactive)

###

Tested on: A498
Experiment: NCI tumour cell line growth inhibition, 48 h
Activity calls are given as the source filed them. Cut-off read from the data, not from the text of the source: active = GI50 up to about 1.1 µM and inactive = higher.
GI50 listing for selected compounds.

Answered cases to consult:
CCCCNC(=S)c1ccc(OC(=O)Nc2ccc(Cl)cc2)cc1
85.1 µM (inactive)
COc1ccc(-n2c3c(c4c(CN(C)C)c(O)ccc42)C(=O)c2ccccc2C3=O)cc1
1.21 µM (inactive)
O=S(=O)(c1ccc(/N=C2\NC(c3ccc(O)cc3)(c3ccccc3O)c3ccccc32)cc1)c1ccc(/N=C2/NC(c3ccc(O)cc3)(c3ccccc3O)c3ccccc32)cc1 (stereo not given)
11.9 µM (inactive)
O=C1c2ccncc2C(=O)c2c(O)ccc(O)c21
19 µM (inactive)

# ---- query compound ----
Task: Provide GI50 value for the following compound: CCOC(=O)c1c(C)nc2c3ccccc3c(C#N)c(C)n12
Result: > 100 µM (inactive)

###

The entries below come with measured GI50 values attached.
Tested on: HOP-18
Assay: NCI tumour cell line growth inhibition, 48 h
Activity calls are given as the source filed them. Rule as the data show it: active = GI50 up to about 1.1 µM and inactive = higher.

O=c1cc(-c2ccccc2)[nH]c2c(F)ccc(F)c12
> 100 µM (inactive)
COc1ccc2c(c1)c[n+](C)c1c3cc(OC)c(OC)cc3ccc21
12.4 µM (inactive)
CC(=O)OCC1OC(n2c(=O)n(-c3ccccc3)c(=O)c3ccccc32)C(OC(C)=O)C(OC(C)=O)C1OC(C)=O (stereo not given)
> 100 µM (inactive)
CC(=O)Nc1ccc(/C=C2\N=C(c3ccccc3)OC2=O)cc1
> 100 µM (inactive)
COc1ccc(-c2cc(N3CCN(c4ccccc4)CC3)c(C#N)c(=O)o2)cc1
4.88 µM (inactive)

Task: Return reported GI50. Input molecule: COc1cc(C(=O)CC2OC(=O)C(Cl)=C2Cl)ccc1Cl (stereo not given)
Result: > 100 µM (inactive)

Task: Consider the molecule Clc1ccc(C2=NOC(C3CCCCC3)C2)cc1 (stereo not given) . State its measured GI50.
Result: > 100 µM (inactive)

Task: Give the value of GI50 reported for the following: COC(=O)c1c2c(c(-c3ccccc3)c3c1-c1nc(Cl)ccc1CC3)CCc1ccc(Cl)nc1-2
Result: > 100 µM (inactive)

Task: Output GI50 of Cc1cc(N(CCC#N)CCC#N)ccc1/C=C1N=C(/C=C\c2ccccc2)N(c2ccc(Cl)cc2)C\1=O
Result: > 100 µM (inactive)

Task: Retrieve GI50 measured for NC(=S)N/N=C1/C(=O)N(c2ccccc2)C(=O)C1C(=O)Nc1ccccc1 (stereo not given) and print it.
Result: > 100 µM (inactive)

###

System: NCI-H460
Assay: NCI tumour cell line growth inhibition, 48 h
Calls of active or inactive are those of the source. Cut-off read from the data, not from the text of the source: active = GI50 up to about 1.1 µM and inactive = higher.
RESULT_TYPE: GI50

S=C(NCc1ccccc1)N/N=C/c1ccccn1
2.04 µM (inactive)

Task: Would you please give the reported GI50 of C/C(=C\COP(=O)(O)OP(=O)(O)O)CCCOCc1ccccc1 with NCI-H460?
Result: > 100 µM (inactive)

Task: Check NCI-H460 data and give GI50 for COc1cc2cc3c4c(cc(OC)c(OC)c4c2cc1OC)CCN3C(=O)CCC(=O)NCCCN(C)C .
Result: 33.1 µM (inactive)

Task: Jot down GI50 (NCI-H460) of Cc1ccc(C(=O)Nc2ccc(CP(=O)(O)O)cc2CP(=O)(O)O)cc1NC(=O)c1cccc(NC(=O)Nc2cccc(C(=O)Nc3cc(C(=O)Nc4ccc(CP(=O)(O)O)cc4CP(=O)(O)O)ccc3C)c2)c1 .
Result: > 100 µM (inactive)
